From: patent US20030135023A1

target: purified porcine DP IV (Sus scrofa); test: Determination of IC50-values, Gly-Pro-pNA cleavage by DP IV; type: biochemical; conditions: Gly-Pro-pNA 0.4 mM, HEPES pH 7.6, 30° C.; read-out: IC50
Sequence (P22411 whole entry): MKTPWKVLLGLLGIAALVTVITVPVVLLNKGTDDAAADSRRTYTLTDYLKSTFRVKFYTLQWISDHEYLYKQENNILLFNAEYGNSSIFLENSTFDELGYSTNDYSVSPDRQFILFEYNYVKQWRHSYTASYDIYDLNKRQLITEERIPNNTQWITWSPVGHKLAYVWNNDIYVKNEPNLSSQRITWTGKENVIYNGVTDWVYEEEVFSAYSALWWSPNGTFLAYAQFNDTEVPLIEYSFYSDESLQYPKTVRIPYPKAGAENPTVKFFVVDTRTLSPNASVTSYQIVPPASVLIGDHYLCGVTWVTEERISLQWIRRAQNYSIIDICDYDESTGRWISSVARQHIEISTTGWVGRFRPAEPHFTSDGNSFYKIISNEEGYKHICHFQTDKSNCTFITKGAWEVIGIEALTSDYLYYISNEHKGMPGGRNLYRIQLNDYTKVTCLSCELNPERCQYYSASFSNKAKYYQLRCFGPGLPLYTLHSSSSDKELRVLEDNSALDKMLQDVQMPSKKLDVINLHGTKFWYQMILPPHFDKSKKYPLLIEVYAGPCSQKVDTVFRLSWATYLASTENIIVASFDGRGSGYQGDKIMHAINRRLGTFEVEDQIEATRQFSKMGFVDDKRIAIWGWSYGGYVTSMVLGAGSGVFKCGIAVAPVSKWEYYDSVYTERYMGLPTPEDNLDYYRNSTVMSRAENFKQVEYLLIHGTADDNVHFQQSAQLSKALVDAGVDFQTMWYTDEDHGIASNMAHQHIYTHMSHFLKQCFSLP
Square brackets hold non-standard residues; d marks the D form. Peptide text beside a SMILES is read from it. pS = N[C@@H](COP(=O)(O)O)C(=O)O; Cha = N[C@@H](CC1CCCCC1)C(=O)O; Orn = NCCC[C@H](N)C(=O)O
measured-parameter: IC50 (µM)
Express your answer in µM, writing the number without its unit.

As a guide, the following entries are already answered.
CC[C@H](C)[C@H](NC(=O)[C@@H]1CCCN1C(=O)[C@@H](N)COP(=O)(O)O)C(=O)O [Ser(P)-Pro-Ile] (H-[pS]-Pro-Ile-OH; N-terminus and C-terminus assumed)    12000
CC[C@H](C)[C@H](NC(=O)[C@@H]1CCCN1C(=O)[C@@H](N)CC1CCCCC1)C(=O)O [Cha-Pro-Ile] (H-[Cha]-Pro-Ile-OH; N-terminus and C-terminus assumed)    20.3

Now take the following compound into account.
[Q] # get_value(readout='IC50', item= CC[C@H](C)[C@H](NC(=O)[C@@H]1CCCN1C(=O)[C@@H](N)CCCN)C(=O)O [Orn-Pro-Ile] (H-[Orn]-Pro-Ile-OH; N-terminus and C-terminus assumed) )
[A] 216
